# assay_summary: Tmax in Sprague-Dawley rat plasma at 10 mg/kg, po
# Type: ADME, organism-based
# Design: dose 10 mg/kg, route oral
measured_metric: Tmax (h)

sample_smiles: COc1cccc(OC)c1C(=O)NN1c2ccc(Cl)cc2N=C(N2CCN(C)CC2)c2ccccc21
result_units: h
recorded_value: 0.5
--
sample_smiles: CN1CCN(C2=Nc3cc(Cl)ccc3N(NC(=O)c3ccccc3Cl)c3ccccc32)CC1
result_units: h
recorded_value: 1
--
sample_smiles: CN1CCN(C2=Nc3cc(Cl)ccc3N(NC(=O)c3cccc4ccccc34)c3ccccc32)CC1
result_units: h
recorded_value: 1

* * *

The entries below come with measured Ki values attached.
# tgt: D(2) dopamine receptor (Homo sapiens)
# assay_summary: Binding affinity at dopamine D2 receptor
measured_metric: Ki

sample_smiles: CN1CCN(C2=Nc3cc(Cl)ccc3N(NC(=O)c3cccc4ccccc34)c3ccccc32)CC1
tgt: D(2) dopamine receptor (Homo sapiens)
measured_metric: Ki
recorded_value: 458 nM

sample_smiles: COc1cccc(OC)c1C(=O)NN1c2ccc(Cl)cc2N=C(N2CCN(C)CC2)c2ccccc21
tgt: D(2) dopamine receptor (Homo sapiens)
measured_metric: Ki
recorded_value: 340 nM

sample_smiles: CN1CCN(C2=Nc3cc(Cl)ccc3N(NC(=O)c3ccccc3Cl)c3ccccc32)CC1
tgt: D(2) dopamine receptor (Homo sapiens)
measured_metric: Ki
recorded_value: 181 nM

sample_smiles: Cc1cccc(C)c1C(=O)NN1c2ccc(Cl)cc2N=C(N2CCN(C)CC2)c2ccccc21
tgt: D(2) dopamine receptor (Homo sapiens)
measured_metric: Ki
recorded_value: 287 nM

sample_smiles: CN1CCN(C2=Nc3cc(Cl)ccc3N(NC(=O)c3c(F)cccc3C(F)(F)F)c3ccccc32)CC1
tgt: D(2) dopamine receptor (Homo sapiens)
measured_metric: Ki
recorded_value: 383 nM

sample_smiles: CN1CCN(C2=Nc3cc(Cl)ccc3N(NC(=O)c3c(N)cccc3Cl)c3ccccc32)CC1
tgt: D(2) dopamine receptor (Homo sapiens)
measured_metric: Ki
recorded_value: 496 nM

sample_smiles: Cc1cccc(N)c1C(=O)NN1c2ccc(Cl)cc2N=C(N2CCN(C)CC2)c2ccccc21
tgt: D(2) dopamine receptor (Homo sapiens)
measured_metric: Ki
recorded_value: 1020 nM

* * *

The entries below come with measured Ki values attached.
# tgt: D(2) dopamine receptor (Homo sapiens, UniProt P14416)
# Sequence (P14416 whole entry): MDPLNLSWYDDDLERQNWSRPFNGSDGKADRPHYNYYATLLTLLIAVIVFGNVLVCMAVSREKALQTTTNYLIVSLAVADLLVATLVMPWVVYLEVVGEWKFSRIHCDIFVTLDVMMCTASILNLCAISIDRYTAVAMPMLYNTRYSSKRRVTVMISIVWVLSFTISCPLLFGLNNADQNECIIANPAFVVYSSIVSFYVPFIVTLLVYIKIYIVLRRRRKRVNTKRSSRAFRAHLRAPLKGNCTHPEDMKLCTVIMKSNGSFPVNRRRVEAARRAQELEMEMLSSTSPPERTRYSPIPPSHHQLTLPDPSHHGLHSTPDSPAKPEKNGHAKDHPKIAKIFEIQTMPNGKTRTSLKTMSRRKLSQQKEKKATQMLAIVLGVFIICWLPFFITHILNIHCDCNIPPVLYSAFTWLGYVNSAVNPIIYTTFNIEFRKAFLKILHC
# assay_summary: Displacement of [3H]methylspiperone from human dopamine D2 receptor expressed in CHO cells
# Assay type: cell-based
measured_metric: Ki (µM)

sample_smiles: CN1CCN(C2=Nc3cc(Cl)ccc3N(NC(=O)c3sccc3-c3ccccc3)c3ccccc32)CC1
tgt: D(2) dopamine receptor (Homo sapiens, UniProt P14416)
recorded_value: 0.078
//
sample_smiles: CN1CCN(C2=Nc3cc(Cl)ccc3N(NC(=O)C(F)(F)F)c3ccccc32)CC1
tgt: D(2) dopamine receptor (Homo sapiens, UniProt P14416)
recorded_value: 1.9
//
sample_smiles: CN1CCN(C2=Nc3cc(Cl)ccc3N(NC(=O)CCC3CCCC3)c3ccccc32)CC1
tgt: D(2) dopamine receptor (Homo sapiens, UniProt P14416)
recorded_value: 1.95
//
sample_smiles: COc1cccc(OC)c1C(=O)NN1c2ccc(Cl)cc2N=C(N2CCN(C)CC2)c2ccccc21
tgt: D(2) dopamine receptor (Homo sapiens, UniProt P14416)
recorded_value: 0.34

* * *

Measurement record for 5-hydroxytryptamine receptor 2A (Homo sapiens); quantity recorded: Ki.
measured_metric: Ki

sample_smiles: CN1CCN(C2=Nc3cc(Cl)ccc3N(NC(=O)c3c(N)cccc3Cl)c3ccccc32)CC1
tgt: 5-hydroxytryptamine receptor 2A (Homo sapiens)
Sequence (P28223 whole entry): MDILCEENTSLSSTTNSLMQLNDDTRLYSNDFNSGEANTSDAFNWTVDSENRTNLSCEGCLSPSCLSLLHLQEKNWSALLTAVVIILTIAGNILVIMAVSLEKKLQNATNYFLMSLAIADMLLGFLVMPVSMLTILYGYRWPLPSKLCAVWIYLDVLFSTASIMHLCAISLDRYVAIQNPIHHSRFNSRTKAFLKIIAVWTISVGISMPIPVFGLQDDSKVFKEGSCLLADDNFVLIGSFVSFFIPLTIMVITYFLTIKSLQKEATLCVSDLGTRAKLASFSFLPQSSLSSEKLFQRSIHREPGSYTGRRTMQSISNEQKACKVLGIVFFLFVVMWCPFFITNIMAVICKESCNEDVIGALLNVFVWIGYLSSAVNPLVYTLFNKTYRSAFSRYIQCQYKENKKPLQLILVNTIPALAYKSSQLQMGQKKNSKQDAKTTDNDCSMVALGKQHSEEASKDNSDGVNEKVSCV
recorded_value: 0.9 nM

sample_smiles: CN1CCN(C2=Nc3cc(Cl)ccc3N(NC(=O)c3ccccc3Cl)c3ccccc32)CC1
tgt: 5-hydroxytryptamine receptor 2A (Homo sapiens)
recorded_value: 1 nM

* * *

Measurement record for D(1B) dopamine receptor (Homo sapiens, UniProt P21918); quantity recorded: Ki.
measured_metric: Ki (µM)

sample_smiles: Cc1cccc(N)c1C(=O)NN1c2ccc(Cl)cc2N=C(N2CCN(C)CC2)c2ccccc21
measured_metric: Ki
recorded_value: 0.058
//
sample_smiles: CN1CCN(C2=Nc3cc(Cl)ccc3N(NC(=O)c3cccc4ccccc34)c3ccccc32)CC1
measured_metric: Ki
recorded_value: 0.105

* * *

The entries below come with measured pKi values attached.
# tgt: UniProt P14416
# assay_summary: Displacement of [3H]methylspiperone from human dopamine D2 receptor expressed in CHO cells
# Type: cell-based
pKi: −log10 of the molar value.

sample_smiles: CN1CCN(C2=Nc3cc(Cl)ccc3N(NC(=O)/C=C/c3ccccc3)c3ccccc32)CC1
pKi: 5.80
//
sample_smiles: CN1CCN(C2=Nc3cc(Cl)ccc3N(NC(=O)c3ccccc3)c3ccccc32)CC1
pKi: 5.94
//
sample_smiles: CN1CCN(C2=Nc3cc(Cl)ccc3N(NC(=O)c3ccsc3)c3ccccc32)CC1
pKi: 5.52
//
sample_smiles: CN1CCN(C2=Nc3cc(Cl)ccc3N(NC(=O)c3c(F)cccc3C(F)(F)F)c3ccccc32)CC1
pKi: 6.42
//
sample_smiles: CN1CCN(C2=Nc3cc(Cl)ccc3N(NC(=O)c3ccon3)c3ccccc32)CC1
pKi: 6.34

* * *

# tgt: D(1A) dopamine receptor (Homo sapiens, UniProt P21728)
# Sequence (P21728 whole entry): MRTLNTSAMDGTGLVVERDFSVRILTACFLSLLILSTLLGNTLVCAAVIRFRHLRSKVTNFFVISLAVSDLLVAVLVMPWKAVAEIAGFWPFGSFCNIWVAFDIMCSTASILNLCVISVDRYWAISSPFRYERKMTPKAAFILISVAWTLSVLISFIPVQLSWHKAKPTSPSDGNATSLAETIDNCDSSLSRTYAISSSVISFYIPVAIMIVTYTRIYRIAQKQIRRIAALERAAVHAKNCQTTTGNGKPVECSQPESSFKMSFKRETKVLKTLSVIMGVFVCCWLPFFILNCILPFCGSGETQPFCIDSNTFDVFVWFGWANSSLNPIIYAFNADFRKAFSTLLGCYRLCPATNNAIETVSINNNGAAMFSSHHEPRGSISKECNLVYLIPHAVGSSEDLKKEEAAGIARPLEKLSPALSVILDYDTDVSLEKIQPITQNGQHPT
# assay_summary: Displacement of [3H]SCH 23390 from human dopamine D1 receptor expressed in CHO cells

sample_smiles: CN1CCN(C2=Nc3cc(Cl)ccc3N(NC(=O)c3nccc4ccccc34)c3ccccc32)CC1
Ki, nM: 23
//
sample_smiles: CN1CCN(C2=Nc3cc(Cl)ccc3N(NC(=O)c3ccccc3NC3CCCCC3)c3ccccc32)CC1
Ki, nM: 62
//
sample_smiles: CN1CCN(C2=Nc3cc(Cl)ccc3N(NC(=O)c3ccc4ccccc4n3)c3ccccc32)CC1
Ki, nM: 10
//
sample_smiles: CCOc1csc(C(=O)NN2c3ccc(Cl)cc3N=C(N3CCN(C)CC3)c3ccccc32)c1
Ki, nM: 10
//
sample_smiles: CN1CCN(C2=Nc3cc(Cl)ccc3N(NC(=O)c3cccnc3Cl)c3ccccc32)CC1
Ki, nM: 11
//
sample_smiles: CN1CCN(C2=Nc3cc(Cl)ccc3N(NC(=O)c3cccc4ccccc34)c3ccccc32)CC1
Ki, nM: 3.8
//
sample_smiles: CN1CCN(C2=Nc3cc(Cl)ccc3N(NC(=O)c3ccccc3N3CCCCC3)c3ccccc32)CC1
Ki, nM: 7.8
//
sample_smiles: CN1CCN(C2=Nc3cc(Cl)ccc3N(NC(=O)c3cnn(-c4ccccc4)c3C(F)(F)F)c3ccccc32)CC1
Ki, nM: 30
//
sample_smiles: CN1CCN(C2=Nc3cc(Cl)ccc3N(NC(=O)c3c(N)cccc3Cl)c3ccccc32)CC1
Ki, nM: 2.6

* * *

# tgt: D(1A) dopamine receptor (Homo sapiens, UniProt P21728)
# assay_summary: Displacement of [3H]SCH 23390 from human dopamine D1 receptor expressed in CHO cells
Under this convention, class 1 denotes Ki strictly below 40 nM and class 0 denotes Ki at or above 40 nM.

sample_smiles: CC(=O)NN1c2ccc(Cl)cc2N=C(N2CCN(C)CC2)c2ccccc21
discrete_label: class 0
--
sample_smiles: CN1CCN(C2=Nc3cc(Cl)ccc3N(NC(=O)C(C)(C)C)c3ccccc32)CC1
discrete_label: class 0
--
sample_smiles: CCOc1ccc2ccccc2c1C(=O)NN1c2ccc(Cl)cc2N=C(N2CCN(C)CC2)c2ccccc21
discrete_label: class 0
--
sample_smiles: CN1CCN(C2=Nc3cc(Cl)ccc3N(NC(=O)c3cccc(I)c3)c3ccccc32)CC1
discrete_label: class 1
--
sample_smiles: CN1CCN(C2=Nc3cc(Cl)ccc3N(NC(=O)C3CCCCC3)c3ccccc32)CC1
discrete_label: class 0
--
sample_smiles: CN1CCN(C2=Nc3cc(Cl)ccc3N(NC(=O)c3ccc4ccccc4c3)c3ccccc32)CC1
discrete_label: class 1
--
sample_smiles: CN1CCN(C2=Nc3cc(Cl)ccc3N(NC(=O)c3cccs3)c3ccccc32)CC1
discrete_label: class 1
--
sample_smiles: CN1CCN(C2=Nc3cc(Cl)ccc3N(NC(=O)c3cccc(F)c3)c3ccccc32)CC1
discrete_label: class 0
--
sample_smiles: CN1CCN(C2=Nc3cc(Cl)ccc3N(NC(=O)c3ccccc3)c3ccccc32)CC1
discrete_label: class 0

* * *

The entries below come with measured pKi values attached.
# tgt: D(1A) dopamine receptor (Homo sapiens)
# assay_summary: Displacement of [3H]SCH 23390 from human dopamine D1 receptor expressed in CHO cells
pKi: −log10 of the molar value.
measured_metric: pKi

sample_smiles: CN1CCN(C2=Nc3cc(Cl)ccc3N(NC(=O)c3ccccc3Oc3ccccc3)c3ccccc32)CC1
recorded_value: 7.29

sample_smiles: COc1cccc(C(=O)NN2c3ccc(Cl)cc3N=C(N3CCN(C)CC3)c3ccccc32)c1
recorded_value: 7.89

sample_smiles: CN1CCN(C2=Nc3cc(Cl)ccc3N(NC(=O)c3cc(Cl)cc(Cl)c3)c3ccccc32)CC1
recorded_value: 7.62

sample_smiles: CN1CCN(C2=Nc3cc(Cl)ccc3N(NC(=O)C(F)(F)F)c3ccccc32)CC1
recorded_value: 7.07

sample_smiles: CN1CCN(C2=Nc3cc(Cl)ccc3N(NC(=O)c3ccon3)c3ccccc32)CC1
recorded_value: 7.66

sample_smiles: Cc1cccc(N)c1C(=O)NN1c2ccc(Cl)cc2N=C(N2CCN(C)CC2)c2ccccc21
recorded_value: 8.49

sample_smiles: Cc1ccc(C(=O)NN2c3ccc(Cl)cc3N=C(N3CCN(C)CC3)c3ccccc32)cc1
recorded_value: 8.11

sample_smiles: CN1CCN(C2=Nc3cc(Cl)ccc3N(N)c3ccccc32)CC1
recorded_value: 6.55

sample_smiles: CCOc1c(C(=O)NN2c3ccc(Cl)cc3N=C(N3CCN(C)CC3)c3ccccc32)sc2ccccc12
recorded_value: 7.55
